Origin of the recorded values: ChEMBL document CHEMBL5724914

Settings: human gut metagenome, 24 h, 2 µM; also: call rule not given here
parameter_measured: Bacterial Biotransformation

CC(=O)CCCCn1c(=O)c2c(ncn2C)n(C)c1=O [PENTOXIFYLLINE] : Compound NOT metabolized
CC1=C(CC(=O)O)c2cc(F)ccc2/C1=C\c1ccc([S+](C)[O-])cc1 (configuration not stated) : Compound metabolized
N#Cc1ccc2c(c1)N(CCCN1CCC(O)CC1)c1ccccc1S2 [PERICIAZINE] : Compound NOT metabolized
CN1CCN(C2=Nc3ccccc3Oc3ccc(Cl)cc32)CC1.O=C(O)CCC(=O)O [LOXAPINE SUCCINATE] : Compound NOT metabolized
CC(C)(C)NC(=O)[C@H]1CC[C@H]2[C@@H]3CC[C@H]4NC(=O)C=C[C@]4(C)[C@H]3CC[C@]12C [FINASTERIDE] : Compound metabolized

Param item = CC(C)NCC(O)COc1ccc(CC(N)=O)cc1 (configuration not stated) [ATENOLOL] ; retrieve measured Bacterial Biotransformation. Compound NOT metabolized

Name the recorded Bacterial Biotransformation for O=C([O-])C[C@H](O)C[C@H](O)/C=C/c1c(C2CC2)nc2ccccc2c1-c1ccc(F)cc1.O=C([O-])C[C@H](O)C[C@H](O)/C=C/c1c(C2CC2)nc2ccccc2c1-c1ccc(F)cc1.[Ca+2] [PITAVASTATIN CALCIUM] . Compound metabolized

Suppose we examine the compound O=C(O)c1cc(/N=N/c2ccc(S(=O)(=O)Nc3ccccn3)cc2)ccc1O [SULFASALAZINE] ; what Bacterial Biotransformation value has been reported? Compound metabolized

So what's the measured Bacterial Biotransformation for this one? CCOC(=O)C1=C[C@]2(CC)CCCN3CCc4c(n1c1ccccc41)[C@@H]32 [VINPOCETINE] Compound metabolized

# lookup: Bacterial Biotransformation of CCOc1ccc2nc(S(N)(=O)=O)sc2c1 [ETHOXZOLAMIDE] Compound NOT metabolized
